Reference for the values: ChEMBL document CHEMBL5244207

- methodNotes: Antioxidant activity assessed as DPPH radical scavenging activity
- Assay type: functional
- measurementParameters: read-out: IC50
This listing pairs molecules with measured IC50.
measurementName: IC50

>>> recordedmeasurement("Oc1cc2c3c(c1)COc1cc(O)cc(c1-3)CC2")
"6.6 µM"
>>> recordedmeasurement("COc1c(O)cc2c3c1COc1cc(O)cc(c1-3)CC2")
"8.4 µM"
>>> recordedmeasurement("Oc1ccc2c(c1)CCc1cc(O)cc(O)c1-2")
"16.2 µM"
>>> recordedmeasurement("COc1c(O)cc2ccc3c(OC)c(O)ccc3c2c1OC")
"12.9 µM"
>>> recordedmeasurement("N=C(N)NN [PIMAGEDINE]")
"21.7 µM"
>>> recordedmeasurement("COc1c(O)cc2c(c1OC)-c1ccc(O)cc1CC2 [ERIANTHRIDIN]")
"14.9 µM"

----------
- Test system: RAW264.7
- methodNotes: Antiinflammatory activity against mouse RAW264.7 cells assessed as inhibition of LPS-induced COX2 expression
- Type: functional, cell-based
pIC50: −log10 of the molar value.
This listing pairs compounds with measured pIC50.
measurementName: pIC50

>>> recordedmeasurement("COC1=CC(=O)c2c(ccc3cc(OC)c(O)cc23)C1=O")
6.57
>>> recordedmeasurement("COc1cc(OC)c2c(ccc3cc(OC)c(O)cc32)c1")
5.74

----------
- methodNotes: Hemolytic activity in human Neutrophil assessed as hemolysis rate at 10 uM relative to control
- Type: toxicity, cell-based
- measurementParameters: human neutrophils, read-out: Activity
measurementName: hemolysis at 10 µM (%)

>>> recordedmeasurement("C=Cc1cc(O)cc2ccc3c(C)c(O)ccc3c12")
11.3

----------
- methodNotes: Toxicity in brine shrimp assessed as lethality
- measurementParameters: artemia salina
measurementName: LC50 (µg/mL)

>>> recordedmeasurement("O=P1(N(CCCl)CCCl)NCCCO1 (stereo unspecified) [CYCLOPHOSPHAMIDE ANHYDROUS]")
16.4

----------
- System: M14
- methodNotes: Cytotoxicity against human M14 cells assessed as reduction in cell viability
- Assay type: functional, cell-based
measurementName: IC50 (nM)

>>> recordedmeasurement("COC1=CC(=O)c2c(ccc3cccc(O)c23)C1=O")
1500

----------
- methodNotes: Antioxidant activity assessed as DPPH radical scavenging activity
- Assay type: functional
- measurementParameters: read-out: IC50
pIC50: −log10 of the molar value.
This listing pairs compounds with measured pIC50.
measurementName: pIC50

>>> recordedmeasurement("COc1ccc2ccc3ccc(O[C@@H]4O[C@H](CO)[C@@H](O)[C@H](O)[C@H]4O)c(O)c3c2c1")
6.70
>>> recordedmeasurement("COc1cc(O)cc2ccc3cccc(O)c3c12")
5.04
>>> recordedmeasurement("COc1cc(O)cc2cc(O)c3cccc(OC)c3c12")
4.22
>>> recordedmeasurement("O=C1O[C@H]([C@@H](O)CO)C(O)=C1O")
4.74
>>> recordedmeasurement("COc1cc(O)c2c(c1)CCc1c-2ccc(OC)c1O")
4.56
>>> recordedmeasurement("COc1cc(O)c2c(c1)CCc1cc(O)cc(O)c1-2")
4.99
>>> recordedmeasurement("COc1cc2c(cc1O)CCc1cc(O)cc(OC)c1-2")
5.05
>>> recordedmeasurement("Oc1ccc(/C=C/c2cc(O)cc(O)c2)cc1")
4.54
>>> recordedmeasurement("Cc1c(C)c2c(c(C)c1O)CCC(C)(C(=O)O)O2 (stereo unspecified)")
4.93
>>> recordedmeasurement("COc1cc2cc(O)cc(OC)c2c2c(O)cccc12")
5.17
>>> recordedmeasurement("COc1cc(O)c2c(c1)CCc1cccc(O)c1-2")
4.67
